Data origin: ChEMBL document CHEMBL4145535

# ASSAY_SYSTEM: C-C chemokine receptor type 5 (Homo sapiens)
# Sequence (P51681 whole entry, looked up): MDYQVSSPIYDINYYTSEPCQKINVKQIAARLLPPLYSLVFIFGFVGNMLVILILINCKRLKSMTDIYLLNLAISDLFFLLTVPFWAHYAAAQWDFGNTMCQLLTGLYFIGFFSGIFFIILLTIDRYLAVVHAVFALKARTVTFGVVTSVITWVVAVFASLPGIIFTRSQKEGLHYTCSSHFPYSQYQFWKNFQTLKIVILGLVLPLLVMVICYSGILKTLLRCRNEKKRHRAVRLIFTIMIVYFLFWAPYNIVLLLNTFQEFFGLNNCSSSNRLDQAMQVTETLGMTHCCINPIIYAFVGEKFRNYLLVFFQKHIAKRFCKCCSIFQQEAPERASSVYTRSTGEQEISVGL
# PROTOCOL_DETAILS: Displacement of [125I]-RANTES from CCR5 in mouse NIH/3T3 cells after 1 hr
pIC50: −log10 of the molar value.
MEASURED_QUANTITY: pIC50

C=CCN(C(=O)OCc1ccc([N+](=O)[O-])cc1)C1CCN(C[C@H]2CN(C(=O)C3CCCC3)C[C@]2(O)c2ccccc2)CC1 : 8.54
